- Target Under Test: butyrylcholinesterase (BChE) (Equus caballus, UniProt P81908)
- Sequence (P81908 whole entry): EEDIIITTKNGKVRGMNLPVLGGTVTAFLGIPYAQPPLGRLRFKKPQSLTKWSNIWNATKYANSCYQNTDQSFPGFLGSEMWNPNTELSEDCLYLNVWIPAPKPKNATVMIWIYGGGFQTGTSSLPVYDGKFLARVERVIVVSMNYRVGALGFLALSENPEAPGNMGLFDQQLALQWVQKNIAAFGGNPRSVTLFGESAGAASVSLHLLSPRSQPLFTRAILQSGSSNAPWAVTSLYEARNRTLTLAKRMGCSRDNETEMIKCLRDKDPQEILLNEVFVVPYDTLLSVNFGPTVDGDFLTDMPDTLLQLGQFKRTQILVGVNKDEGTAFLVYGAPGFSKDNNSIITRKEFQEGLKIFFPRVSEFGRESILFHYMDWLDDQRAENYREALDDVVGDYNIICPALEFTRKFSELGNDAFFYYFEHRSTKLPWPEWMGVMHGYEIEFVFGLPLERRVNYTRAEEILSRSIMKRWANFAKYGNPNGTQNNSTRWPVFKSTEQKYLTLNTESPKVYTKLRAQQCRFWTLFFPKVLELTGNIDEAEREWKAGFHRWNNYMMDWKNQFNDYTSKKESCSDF
- Test Name: biochemical
- Assay type: biochemical
- Measurement Setup: read-out: BChE inhibition (%)
Quantity Measured: inhibition at 40 µg/mL (%)
Field format: number, assumed %, no unit text.

Input: Dear colleague, I am looking for the recorded inhibition at 40 µg/mL of the following compound: COc1cc(C(OC)C(C)C(C)Cc2ccc3c(c2)OCO3)ccc1O (stereo not shown) [Compound 6]
Output: 44

Input: COc1cc([C@H]2O[C@@H](c3ccc(O)c(OC)c3)[C@H](C)[C@@H]2C)ccc1O [Compound 4] ?
Output: 45.8

Input: Please answer likewise for COc1ccc(CC(C)C(C)Cc2ccc(O)c(O)c2)cc1OC (stereo not shown) [Compound 3]
Output: 47.4

Input: Also check COc1cc(CC(C)C(C)Cc2ccc3c(c2)OCO3)ccc1O (stereo not shown) [Compound 5]
Output: 54.4

###

- Target Under Test: Acetylcholinesterase (AChE) (Electrophorus electricus)
- Construct: Type V-S, lyophilized powder, from electric eel; purchased Sigma-Aldrich; host or cells: electric eel (natural source)
- Sequence (O42275 24-633): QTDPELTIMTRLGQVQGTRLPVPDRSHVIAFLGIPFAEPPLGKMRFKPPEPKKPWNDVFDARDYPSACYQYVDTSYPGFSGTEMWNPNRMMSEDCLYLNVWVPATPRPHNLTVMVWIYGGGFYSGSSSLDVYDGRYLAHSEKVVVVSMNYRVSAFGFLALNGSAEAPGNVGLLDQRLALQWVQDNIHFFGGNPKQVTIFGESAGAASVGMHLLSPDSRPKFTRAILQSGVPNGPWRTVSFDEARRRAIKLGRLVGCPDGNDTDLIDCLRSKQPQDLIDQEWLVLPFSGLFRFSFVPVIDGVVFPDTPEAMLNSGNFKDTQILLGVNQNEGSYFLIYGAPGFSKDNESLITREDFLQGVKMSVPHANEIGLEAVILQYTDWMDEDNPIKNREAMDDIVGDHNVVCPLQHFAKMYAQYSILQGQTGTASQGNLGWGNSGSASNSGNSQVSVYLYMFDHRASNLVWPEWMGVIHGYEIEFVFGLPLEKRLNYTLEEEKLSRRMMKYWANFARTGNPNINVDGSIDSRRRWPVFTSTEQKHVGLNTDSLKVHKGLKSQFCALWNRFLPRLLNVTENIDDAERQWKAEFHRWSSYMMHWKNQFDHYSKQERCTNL
- Test Name: biochemical
- Assay type: biochemical
- Measurement Setup: isolated compounds; mean ± SD, three experiments; read-out: AChEI (μM), IC50
Quantity Measured: IC50 (µM)
Give just the numeric value; µM need not be written.

Input: Please look up its IC50: "O=C(CCCCCCCCc1ccc(O)c(O)c1)c1c(O)cccc1O"
Output: 25

Input: # iterate: "O=C(CCCCCCCCc1ccccc1)c1c(O)cccc1O"
Output: 67.4

###

- Target Under Test: butyrylcholinesterase (BChE) (Equus caballus, UniProt P81908)
- Test Name: biochemical
- Assay type: biochemical
- Measurement Setup: isolated compounds; mean ± SD, three experiments; read-out: BChEI (μM), IC50
For each of the compounds below, state its IC50.
Number only, in µM; omit the unit.

Input: Which measured IC50 value corresponds to O=C(CCCCCCCCc1ccc(O)c(O)c1)c1c(O)cccc1O [Compound 2] ?
Output: 22.4

Input: And the next one, O=C(CCCCCCCCc1ccccc1)c1c(O)cccc1O [Compound 1] ?
Output: 27.2

###

Can you tell me inhibition at 40 µg/mL for the items I'm about to list?
- Target Under Test: Acetylcholinesterase (AChE) (Electrophorus electricus)
- Construct: Type V-S, lyophilized powder, from electric eel; purchased Sigma-Aldrich; host or cells: electric eel (natural source)
- Test Name: biochemical
- Type: biochemical
- Measurement Setup: read-out: AChE inhibition (%)
Hi! Could you send only the number? It should be in %, unit omitted.

Input: Name the reported inhibition at 40 µg/mL value associated with the molecule COc1ccc(CC(C)C(C)Cc2ccc(O)c(O)c2)cc1OC (stereo not shown) [Compound 3]
Output: 0

Input: Check COc1cc(C(OC)C(C)C(C)Cc2ccc3c(c2)OCO3)ccc1O (stereo not shown) [Compound 6] too.
Output: 0

Input: Then this molecule: COc1cc([C@H]2O[C@@H](c3ccc(O)c(OC)c3)[C@H](C)[C@@H]2C)ccc1O [Compound 4]
Output: 0

Input: Field entry: COc1cc(CC(C)C(C)Cc2ccc3c(c2)OCO3)ccc1O (stereo not shown) [Compound 5]
Output: 12.8
